Items are presented alongside their recorded refractive index.
- Assay remarks: refractive index (Na D-line) (dimensionless); xn = mol fraction of the nth substance listed
- Condition summary: 298.15 K; 100 kPa; Liquid; Standard Abbe refractometry; x1 = 0.3
± gives the expanded uncertainty stated by the source.

Example entries and their recorded answers appear below.
CN1CCC[C@H]1c1cccnc1 [(-)-3-(N-methylpyrrolidino)pyridine] + CCC(C)O ... 1.45199 ± 0.00037
CN1CCC[C@H]1c1cccnc1 [(-)-3-(N-methylpyrrolidino)pyridine] + CC(O)CO ... 1.47804 ± 0.00037
CN1CCC[C@H]1c1cccnc1 [(-)-3-(N-methylpyrrolidino)pyridine] + CCCCO ... 1.45448 ± 0.00037

// refractive index value for CN1CCC[C@H]1c1cccnc1 [(-)-3-(N-methylpyrrolidino)pyridine] + OCCCO : 1.4835 ± 0.00049

###

Items are presented alongside their recorded viscosity.
- Assay remarks: xn = mol fraction of the nth substance listed
- Condition summary: 318.15 K; 100 kPa; Liquid; Concentric cylinders viscometry; x1 = 0.3
Number in mPa·s, nothing else.

CN1CCC[C@H]1c1cccnc1 [(-)-3-(N-methylpyrrolidino)pyridine] + OCCCO ... 15.95
CN1CCC[C@H]1c1cccnc1 [(-)-3-(N-methylpyrrolidino)pyridine] + CC(O)CO ... 11.45
CN1CCC[C@H]1c1cccnc1 [(-)-3-(N-methylpyrrolidino)pyridine] + CCC(C)O ... 1.848

The record that follows has no viscosity shown yet.
// viscosity value for CN1CCC[C@H]1c1cccnc1 [(-)-3-(N-methylpyrrolidino)pyridine] + CCCCO : 1.88

###

- Assay remarks: xn = mol fraction of the nth substance listed
- Condition summary: 313.15 K; 100 kPa; Liquid; Vibrating tube method; x1 = 0.5
Items are presented alongside their recorded mass density.
Number in kg/m3, nothing else.

// mass density value for CN1CCC[C@H]1c1cccnc1 [(-)-3-(N-methylpyrrolidino)pyridine] + OCCCO : 1016.85

// mass density value for CN1CCC[C@H]1c1cccnc1 [(-)-3-(N-methylpyrrolidino)pyridine] + CCC(C)O : 924.831

// mass density value for CN1CCC[C@H]1c1cccnc1 [(-)-3-(N-methylpyrrolidino)pyridine] + CCCCO : 926.955

// mass density value for CN1CCC[C@H]1c1cccnc1 [(-)-3-(N-methylpyrrolidino)pyridine] + CC(O)CO : 1007.92

###

- Assay remarks: xn = mol fraction of the nth substance listed
- Condition summary: 293.15 K; 100 kPa; Liquid; Concentric cylinders viscometry; x1 = 0.5
Items are presented alongside their recorded viscosity.
Number in mPa·s, nothing else.

CN1CCC[C@H]1c1cccnc1 [(-)-3-(N-methylpyrrolidino)pyridine] + CCCCO ... 3.829
CN1CCC[C@H]1c1cccnc1 [(-)-3-(N-methylpyrrolidino)pyridine] + OCCCO ... 33.15
CN1CCC[C@H]1c1cccnc1 [(-)-3-(N-methylpyrrolidino)pyridine] + CC(O)CO ... 26.04

The record that follows has no viscosity shown yet.
// viscosity value for CN1CCC[C@H]1c1cccnc1 [(-)-3-(N-methylpyrrolidino)pyridine] + CCC(C)O : 4.157

###

Items are presented alongside their recorded refractive index.
- Assay remarks: refractive index (Na D-line) (dimensionless); xn = mol fraction of the nth substance listed
- Condition summary: 308.15 K; 100 kPa; Liquid; Standard Abbe refractometry; x1 = 0.1
Give only the figure.

CN1CCC[C@H]1c1cccnc1 [(-)-3-(N-methylpyrrolidino)pyridine] + CC(O)CO ... 1.44622
CN1CCC[C@H]1c1cccnc1 [(-)-3-(N-methylpyrrolidino)pyridine] + CCC(C)O ... 1.41211
CN1CCC[C@H]1c1cccnc1 [(-)-3-(N-methylpyrrolidino)pyridine] + CCCCO ... 1.41481

// refractive index value for CN1CCC[C@H]1c1cccnc1 [(-)-3-(N-methylpyrrolidino)pyridine] + OCCCO : 1.45312
